Data provenance is the supplement of paper PMC10307832.

Recorded relative viability for the following compounds
System: SK-LU-1
Assay: relative viability (nuclei count vs DMSO), 5 days (fraction); higher = more cells survive
Details: first compound 0.5 µM
Form: value (number only, do not type unit).

Solved cases below.
- compound: "CC1(C)CCC(c2ccc(Cl)cc2)=C(CN2CCN(c3ccc(C(=O)NS(=O)(=O)c4ccc(N[C@H](CCN5CCOCC5)CSc5ccccc5)c(S(=O)(=O)C(F)(F)F)c4)cc3)CC2)C1 [Navitoclax] + C[C@]1(O)C[C@@H](c2nc(-c3ccc4ccc(-c5ccccc5)nc4c3)c3c(N)nccn32)C1 [Linsitinib] (partner 1 µM)"
  subject of test: "SK-LU-1"
  relative viability: 0.773
- compound: "CC1(C)CCC(c2ccc(Cl)cc2)=C(CN2CCN(c3ccc(C(=O)NS(=O)(=O)c4ccc(N[C@H](CCN5CCOCC5)CSc5ccccc5)c(S(=O)(=O)C(F)(F)F)c4)cc3)CC2)C1 [Navitoclax] + Cc1nc(NC(=O)N2CCC[C@H]2C(N)=O)sc1-c1ccnc(C(C)(C)C(F)(F)F)c1 [Alpelisib] (partner 2 µM)"
  subject of test: "SK-LU-1"
  relative viability: 0.867

# next compound below
relative viability reading for CC1(C)CCC(c2ccc(Cl)cc2)=C(CN2CCN(c3ccc(C(=O)NS(=O)(=O)c4ccc(N[C@H](CCN5CCOCC5)CSc5ccccc5)c(S(=O)(=O)C(F)(F)F)c4)cc3)CC2)C1 [Navitoclax] + Nc1ncn([C@H]2C[C@H](O)[C@@H](CO)O2)c(=O)n1 [Decitabine] (partner 2 µM) : 0.469
